molecular target: JAK1 (Homo sapiens (Human), UniProt P23458); experiment: Jak Biochemical HTRF Assay, JAK1; conditions: HTRF biochemical assay, GST-tagged catalytic domain; top concentration tested […]; read-out: JAK1 IC50
Sequence (P23458 875-1153): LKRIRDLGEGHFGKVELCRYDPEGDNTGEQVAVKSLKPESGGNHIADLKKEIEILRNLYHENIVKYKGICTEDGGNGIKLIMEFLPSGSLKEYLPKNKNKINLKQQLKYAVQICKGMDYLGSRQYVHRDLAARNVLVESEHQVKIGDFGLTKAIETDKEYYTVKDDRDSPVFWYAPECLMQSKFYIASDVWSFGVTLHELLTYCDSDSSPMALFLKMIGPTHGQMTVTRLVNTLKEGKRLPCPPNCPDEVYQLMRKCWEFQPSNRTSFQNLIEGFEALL
property_label: IC50

Write down IC50 measured for item N#CCC1(n2cc(C(N)=O)c(Nc3ccnc(F)c3)n2)CCC(Nc2cccc(F)c2)CC1 (stereo not shown) [Example 40-64]
0.05 nM

Give the value of IC50 reported for the following: N#CCC1(n2cc(C(N)=O)c(Nc3ccc(F)cc3)n2)CCN(Cc2ccc3[nH]ccc3c2)CC1 [Example 22-55]
4 nM

Consider the compound N#CCC1(n2cc(C(N)=O)c(Nc3ccc(F)cc3)n2)CCC(NCCO)CC1 (stereo not shown) [Example 40-68] and give its recorded IC50.
69 nM

Look up IC50 of N#CCC1(n2cc(C(N)=O)c(Nc3ccc(F)cc3)n2)CCC(Nc2ccc(F)cc2)CC1 (stereo not shown) [Example 40-19] and report it.
0.3 nM
